# assayOverview: Toxicity in human erythrocytes assessed as hemolysis at 25 uM after 24 hrs by spectrophotometry
# Type: cell-based, Erythrocyte
# conditionContext: read-out: Activity
Classify as follows. Reported hemolysis at 24 h, 25 µM greater than or equal to 2%: fulfilled. Reported hemolysis at 24 h, 25 µM below: not fulfilled.

{"molecule": "COc1ccc2c(c1)/C(=N/NC(N)=S)CC2", "classAssignment": "fulfilled"}
{"molecule": "S=C(N/N=C1\\CCc2ccccc21)Nc1ccccc1", "classAssignment": "fulfilled"}
{"molecule": "NC(=S)N/N=C1\\CCc2ccccc21", "classAssignment": "not fulfilled"}
{"molecule": "S=C(N/N=C1\\CCc2ccccc21)Nc1ccc(Cl)cc1", "classAssignment": "not fulfilled"}
{"molecule": "Cc1cc2c(c(C)c1Cl)CC/C2=N\\NC(N)=S", "classAssignment": "not fulfilled"}

// inclusive: hemolysis at 24 h, 25 µM at least 2%? input: Cc1cc(Br)c(C)c2c1/C(=N/NC(N)=S)CC2 fulfilled

// inclusive: hemolysis at 24 h, 25 µM at least 2%? input: COc1ccc2c(c1)CC/C2=N\NC(N)=S not fulfilled

// inclusive: hemolysis at 24 h, 25 µM at least 2%? input: Cc1cc(C)c2c(c1Br)CC/C2=N\NC(N)=S fulfilled

// inclusive: hemolysis at 24 h, 25 µM at least 2%? input: NC(=S)N/N=C1\CCc2ccc([N+](=O)[O-])cc21 not fulfilled

// inclusive: hemolysis at 24 h, 25 µM at least 2%? input: Cc1cc2c(c(C)c1Cl)/C(=N/NC(N)=S)CC2 fulfilled

---

# assayOverview: Toxicity in human erythrocytes assessed as hemolysis at 25 uM after 24 hrs by spectrophotometry
# Type: cell-based, Erythrocyte
# conditionContext: read-out: Activity
Each record here notes measured hemolysis at 24 h, 25 µM.
The answer is to be given in %; state only the numeric part.

Observe how each entry below is paired with its result.
{"querySmiles": "C[C@@H]1[C@H](O)[C@@H](C)/C=C/C=C/C=C/C=C/C=C/C=C/C=C/[C@H](O[C@@H]2O[C@H](C)[C@@H](O)[C@H](N)[C@@H]2O)C[C@@H]2O[C@](O)(C[C@@H](O)C[C@@H](O)[C@H](O)CC[C@@H](O)C[C@@H](O)CC(=O)O[C@H]1C)C[C@H](O)[C@H]2C(=O)O", "hemolysis at 24 h, 25 µM, %": 100}
{"querySmiles": "Cc1cc(C)c2c(c1)CC/C2=N\\NC(N)=S", "hemolysis at 24 h, 25 µM, %": 0.1}
{"querySmiles": "COc1cc2c(cc1OC)/C(=N/NC(N)=S)CC2", "hemolysis at 24 h, 25 µM, %": 0.1}
{"querySmiles": "Cc1cccc2c1CC/C2=N\\NC(N)=S", "hemolysis at 24 h, 25 µM, %": 0.1}
{"querySmiles": "NC(=S)N/N=C1\\CCc2cc(Br)ccc21", "hemolysis at 24 h, 25 µM, %": 2.4}

Provide measured hemolysis at 24 h, 25 µM value, entry: COc1cc2c(cc1OC)/C(=N/NC(=S)Nc1ccc(Cl)cc1)CC2 0.1

Provide measured hemolysis at 24 h, 25 µM value, entry: NC(=S)N/N=C1\CCc2cc(F)ccc21 0.2

---

Each record here notes measured hemolysis at 24 h, 25 µM.
# assayOverview: Toxicity in human erythrocytes assessed as hemolysis at 25 uM after 24 hrs by spectrophotometry
# Type: cell-based, Erythrocyte
# conditionContext: read-out: Activity
The answer is to be given in %; state only the numeric part.

Observe how each entry below is paired with its result.
{"querySmiles": "COc1cccc2c1CC/C2=N\\NC(N)=S", "unit": "%", "observedMeasurement": 1}
{"querySmiles": "Cc1ccc2c(c1)CC/C2=N\\NC(N)=S", "unit": "%", "observedMeasurement": 0.5}

Provide measured hemolysis at 24 h, 25 µM value, entry: NC(=S)N/N=C1\CCc2cc(Cl)ccc21 0.1

Provide measured hemolysis at 24 h, 25 µM value, entry: Cc1ccc(NC(=S)N/N=C2\CCc3ccccc32)cc1 1.6
